Assay: qHTS Screen of the MIPE 4.0 Collection Against Ewings Sarcoma (RDES) (AID 1259252); also: nearly all actives have a fitted effect of over 35% in size
Details: RD-ES Ewing sarcoma viability, CellTiter-Glo, 48 h; series mostly up to 45.8 µM
Results filed as inconclusive are left out. Calls of active or inactive are those of the source. Calls follow the shape of the dose curve; as a rule, active = well fitted inhibition curve with a large enough effect; inconclusive = small, poorly fitted or top-dose-only effect; inactive = no such curve, though single readings can be large or run the other way.
One label from this list, please: 1.0 for active, 0.0 for inactive

Worked examples, 6 molecules total:
Nc1ccc(C(=O)c2cc3c(ccc4ccccc43)[nH]2)cc1 ... 1.0
COc1cc2c(Oc3ccc4[nH]c(C)cc4c3F)ncnc2cc1OCCCN1CCCC1 ... 1.0
Cc1ccc(C(=O)Nc2cccc(C(F)(F)F)c2)cc1-c1ccc2nc(NCCN3CCOCC3)ncc2c1 ... 1.0
O=C(Nc1ncc(-c2cc(C(F)F)nn2-c2c(Cl)cccc2Cl)s1)C1CC1 ... 1.0
CC(=O)c1c(C)c2cnc(Nc3ccc(N4CCNCC4)cn3)nc2n(C2CCCC2)c1=O ... 1.0
CC(C)(O)CCc1ccc(OCc2cc(-c3cccc(OC(F)F)c3)c3ncccc3c2)cc1 ... 0.0

Outcome logged for CCOc1cc2ncc(C#N)c(Nc3ccc(F)c(Cl)c3)c2cc1NC(=O)C=CCN(C)C in this assay:
1.0

Outcome logged for CCN(CC)CCNC(=O)c1ccc2nc(-c3ccccc3)c(-c3ccc(CN4CCC(n5c(=O)[nH]c6ccccc65)CC4)cc3)nc2c1 in this assay:
1.0

###

Experiment: qHTS Screen of the MIPE 4.0 Collection Against Ewings Sarcoma (RDES) (AID 1259252); also: nearly all actives have a fitted effect of over 35% in size
Details: RD-ES Ewing sarcoma viability, CellTiter-Glo, 48 h; series mostly up to 45.8 µM
Inconclusive results are not listed. Active and inactive are the calls of the source. The call rests on the fitted dose curve; in most records, active means well fitted inhibition curve with a large enough effect; inconclusive means small, poorly fitted or top-dose-only effect; inactive means no such curve, though single readings can be large or run the other way.
One label from this list, please: active, inactive

Nc1nc(NCCNc2ncc(-n3ccnc3)c(-c3ccc(Cl)cc3Cl)n2)ccc1[N+](=O)[O-] ... active
Cc1cc(Nc2nc(N[C@@H](C)c3ccc(F)cc3)c(C#N)cc2F)n[nH]1 ... active
COc1c(OCCCN2CCOCC2)ccc2c3n(c(=NC(=O)c4cnc(N)nc4)nc12)CCN3 ... active
O=c1c2ccccc2nc2n1CCc1c-2[nH]c2ccccc12 ... inactive
Cc1cc(Nc2cc(N3CCN(C)CC3)nc(C=Cc3ccccc3)n2)n[nH]1 ... active
COc1ccc(OC)c(-c2nnc3ccc(-c4ccc(OC)c(O[C@@H]5CCOC5)c4)nn23)c1 ... active
c1nc2nc(Nc3ccc(N4CCOCC4)cc3)nc(NC3CCCCC3)c2[nH]1 ... active
O=C(c1cncc(Br)c1)N1CCC(N2CCCC2)CC1 ... inactive

Okay, now this molecule:
Outcome logged for CN1CCN(Cc2ccc(NC(=O)Nc3ccc(Oc4cc(NC(=O)C5CC5)ncn4)cc3)cc2C(F)(F)F)CC1 in this assay:
active

###

Experiment: Quantitative High-Throughput drug screen in 47 multiple myeloma cell lines against the NCATS MIPE library collection: VP6_DJ cell viability assay (AID 1919867); also: potency is read from the fitted curve at half-maximal effect; nearly all actives have a fitted effect of over 40% in size
Conditions: ATP luminescence, 48 h; series mostly up to 45.8 µM
Records with an inconclusive call do not appear. The source made the active and inactive calls. The call rests on the fitted dose curve; in most records, active means well fitted cell-killing curve with a large enough effect; inconclusive means small, poorly fitted or top-dose-only effect, or effect the other way; inactive means no such curve, though single readings can be large or run the other way.
Here, each record is paired with measured Potency data.

Worked examples, 2 molecules total:
COc1ccc(-c2cc3c(C)nc(N)nc3n(C3CCC(OCCO)CC3)c2=O)cn1 (stereo unspecified) ... 1 nM (active)
O=C(Nc1cc(C(F)(F)F)cc(C(F)(F)F)c1)c1cc(Cl)ccc1O ... 526 nM (active)

What value of Potency has been recorded for this entry: CN1CCC(CNc2ccc3ncc(-c4cccc(OC(F)(F)F)c4)n3n2)CC1
7430 nM (active)

What value of Potency has been recorded for this entry: CC(=O)Nc1sc2c(c1-c1nc3ccccc3s1)CNC2
11800 nM (active)

What value of Potency has been recorded for this entry: C=C1C(=CC=C2CCC[C@]3(C)[C@@H]([C@H](C)C=C[C@H](C)C(C)C)CC[C@@H]23)C[C@@H](O)C[C@@H]1O
132 nM (active)

What value of Potency has been recorded for this entry: Nc1nc(-c2nn(Cc3ccccc3F)c3ncccc23)nc(N)c1N1CCOCC1
3720 nM (active)
